Test system: IL-4 stimulated expression of CD23 in human Ramos B cells (JAK-1 and JAK-3)
Test: Assay for Ramos B-Cell Line Stimulated with IL-4 (CD23 upregulation, FACS)
Type: cell-based
Conditions: Ramos B-cell line stimulated with IL-4; CD23 expression by FACS; sodium salt; read-out: IC50, Example 41
Structures can show the parent of a compound that is named as a salt.
Recorded log10(IC50), one value per entry.
Short version: log10 scale, IC50, µM.

Example compounds with recorded log10(IC50):
INSERT INTO assay_data (compound, target_or_test_system, numeric_result) VALUES
  ('CCC(=O)NS(=O)(=O)c1cccc(Nc2ncc(F)c(Nc3ccc(OCc4nc(C)no4)cc3)n2)c1 [Compound I-273, Sodium Salt]', 'IL-4 stimulated expression of CD23 in human Ramos B cells (JAK-1 and JAK-3)', -0.32),
  ('CCC(=O)NS(=O)(=O)c1cccc(Nc2ncc(F)c(Nc3ccc(Cc4ccncc4)cc3)n2)c1 [III-69, sodium salt]', 'IL-4 stimulated expression of CD23 in human Ramos B cells (JAK-1 and JAK-3)', 0.52),
  ('CC(=O)NS(=O)(=O)c1cccc(Nc2ncc(F)c(Nc3ccc(OCc4cc(C)on4)cc3)n2)c1 [Compound I-243, sodium salt]', 'IL-4 stimulated expression of CD23 in human Ramos B cells (JAK-1 and JAK-3)', -0.04),
  ('CCC(=O)NS(=O)(=O)c1cc(Nc2ncc(F)c(Nc3ccc(OCC#N)c(F)c3)n2)ccc1C [Compound I-49, Sodium Salt]', 'IL-4 stimulated expression of CD23 in human Ramos B cells (JAK-1 and JAK-3)', 0.37),
  ('CC(=O)NS(=O)(=O)c1cc(Nc2ncc(F)c(Nc3ccc(OCC#N)cc3)n2)ccc1C [Compound I-38, sodium salt]', 'IL-4 stimulated expression of CD23 in human Ramos B cells (JAK-1 and JAK-3)', 0.81),
  ('CCC(=O)NS(=O)(=O)c1cccc(Nc2ncc(F)c(Nc3ccc(OCc4cc(C)on4)cc3)n2)c1 [Compound I-242, sodium salt]', 'IL-4 stimulated expression of CD23 in human Ramos B cells (JAK-1 and JAK-3)', -0.28),
  ('Cc1ccc(Nc2ncc(F)c(Nc3ccc(OCC#N)cc3)n2)cc1S(=O)(=O)NC(=O)C(C)C [Compound I-39, sodium Salt]', 'IL-4 stimulated expression of CD23 in human Ramos B cells (JAK-1 and JAK-3)', -0.08);

The record that follows has no log10(IC50) shown yet.
What log10(IC50) value was documented for this compound, CCC(=O)NS(=O)(=O)c1cc(Nc2ncc(F)c(Nc3ccc(OCC#N)cc3)n2)ccc1C [Compound I-31, sodium salt] ?
0.67
